# System Under Test: T1, human GITR, membrane bound (on activated human T cells and on 3A9-hGITR cells) (human, UniProt Q9Y5U5 26-241)
# T1 construct: whole, on cells; the cell is named under assay; also called huGITR; TNFRSF18
# T1 sequence (looked up): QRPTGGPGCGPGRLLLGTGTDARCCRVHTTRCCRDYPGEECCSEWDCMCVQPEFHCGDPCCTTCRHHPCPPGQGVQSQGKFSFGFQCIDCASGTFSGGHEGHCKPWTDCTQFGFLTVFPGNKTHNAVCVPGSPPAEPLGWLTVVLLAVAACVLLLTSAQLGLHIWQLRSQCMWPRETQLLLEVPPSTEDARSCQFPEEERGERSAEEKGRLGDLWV
# Assay Comment: FACS binding to 3A9-hGITR transfectant, Geo-MFI (PE); EC50 table beside the curves; unit from the axis
Below, each of the binders is paired with its reported EC50 value.

{"Binder": "28F3 VH CDR3 mutant M98V, D106E, M111F (antibody, V domains shown, also called A4) VH: QVQLVESGGGVVQPGRSLRLSCAASGFTFSSYGMHWVRQAPGKGLEWVAVIWYEGSNKYYADSVKGRFTISRDNSKNTLYLQMNSLRAEDTAVYYCARGGSVVRGEYYYGFDVWGQGTTVTVSS VL: AIQLTQSPSSLSASVGDRVTITCRASQGISSALAWYQQKPGKAPKLLIYDASSLESGVPSRFSGSGSGTDFTLTISSLQPEDFATYYCQQFNSYPYTFGQGTKLEIK", "EC50 (nM)": 0.772}
{"Binder": "28F3 VH CDR3 mutant M98Y (antibody, V domains shown, also called G6) VH: QVQLVESGGGVVQPGRSLRLSCAASGFTFSSYGMHWVRQAPGKGLEWVAVIWYEGSNKYYADSVKGRFTISRDNSKNTLYLQMNSLRAEDTAVYYCARGGSYVRGDYYYGMDVWGQGTTVTVSS VL: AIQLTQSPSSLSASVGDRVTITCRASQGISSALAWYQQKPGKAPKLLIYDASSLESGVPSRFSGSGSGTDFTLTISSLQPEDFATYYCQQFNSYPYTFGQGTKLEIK", "EC50 (nM)": 1.68}
{"Binder": "28F3 VH CDR3 mutant M98A, D106E, M111F (antibody, V domains shown, also called F4) VH: QVQLVESGGGVVQPGRSLRLSCAASGFTFSSYGMHWVRQAPGKGLEWVAVIWYEGSNKYYADSVKGRFTISRDNSKNTLYLQMNSLRAEDTAVYYCARGGSAVRGEYYYGFDVWGQGTTVTVSS VL: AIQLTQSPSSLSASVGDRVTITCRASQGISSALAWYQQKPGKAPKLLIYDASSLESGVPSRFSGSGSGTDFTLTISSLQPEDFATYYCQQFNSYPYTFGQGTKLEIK", "EC50 (nM)": 19.1}
{"Binder": "28F3 VH CDR3 mutant M98F (antibody, V domains shown, also called A6) VH: QVQLVESGGGVVQPGRSLRLSCAASGFTFSSYGMHWVRQAPGKGLEWVAVIWYEGSNKYYADSVKGRFTISRDNSKNTLYLQMNSLRAEDTAVYYCARGGSFVRGDYYYGMDVWGQGTTVTVSS VL: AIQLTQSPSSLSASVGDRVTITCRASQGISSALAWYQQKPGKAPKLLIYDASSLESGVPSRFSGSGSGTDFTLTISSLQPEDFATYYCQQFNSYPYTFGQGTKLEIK", "EC50 (nM)": 0.797}
{"Binder": "28F3 VH CDR3 mutant M98L (antibody, V domains shown, also called B6) VH: QVQLVESGGGVVQPGRSLRLSCAASGFTFSSYGMHWVRQAPGKGLEWVAVIWYEGSNKYYADSVKGRFTISRDNSKNTLYLQMNSLRAEDTAVYYCARGGSLVRGDYYYGMDVWGQGTTVTVSS VL: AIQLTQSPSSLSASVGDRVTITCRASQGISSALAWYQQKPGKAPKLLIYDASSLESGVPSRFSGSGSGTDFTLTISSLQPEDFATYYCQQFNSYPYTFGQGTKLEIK", "EC50 (nM)": 0.757}

Ref: patent US20170145104A1
